Quick list: logP per entry.
test.readout: logP

1) N#CCCC#N : -0.99
2) CCCCOCCNc1ccc(Cl)cc1C(N)=O : 2.99
3) COC(=O)c1sccc1S(=O)(=O)NC(=O)Nc1nc(C)nc(OC)n1 : 1.56
4) OCCOc1cccc2ccccc12 : 2.5
5) Cc1c(Cl)ccc(Cc2c(Cl)cccc2Cl)c1Cl : 7.2
6) O=Cc1ccc(F)cc1 : 1.54
7) Cc1ccc(N)cc1C : 1.84
8) CC(C)Oc1c(Br)c(Br)n(C)c1C(=O)Nc1nn[nH]n1 : 2.52
9) Clc1cc2c(Cl)c(Cl)c(Cl)c(Cl)c2cc1Cl : 7.7
10) Cc1cn([C@H]2CC[C@@H](CO)O2)c(=O)[nH]c1=S : 0.44
11) CCN(CC)CCN=c1cc2n(-c3ccc(Cl)cc3)c3ccccc3nc-2cc1Nc1ccc(Cl)cc1 : 7.97
12) COc1sc(C(=O)Nc2nn[nH]n2)c(OC(C)C)c1Br : 1.35
13) NS(=O)(=O)c1cc2c(cc1Cl)NC(C1CC3C=CC1C3)NS2(=O)=O (configuration not stated) : 1.95
14) CC(=O)OCCC(C)C : 2.25
15) CCCCCCCc1ccccc1 : 5.37
16) COC1=C(OC)C(=O)C(C)=CC1=O : 0.8
17) c1ccc2c(c1)ccc1c3ccccc3ccc21 : 5.81
18) CC1=CCC(=C(C)C)CC1 : 4.47
19) NC(Cc1ccc(O)c(O)c1)C(=O)OCC1CCCCO1 (configuration not stated) : 0.47
20) Clc1ccc2c(Cl)ccnc2c1 : 3.57
21) CC(C)(C#N)/N=N/C(C)(C)C#N : 1.1
22) CC(=O)OC1CCC(C(C)(C)C)CC1 (configuration not stated) : 4.8
23) CCCCCCCCCCCC : 6.1
24) CC(=O)Oc1ccc(N(C)C(=O)C(Cl)Cl)cc1 : 1.56
25) Oc1cccc(N=C=S)c1 : 3.23
26) CN(C)c1ncc(-c2ccncc2)cc1C#N : 2.13
27) Nc1ccc(O)c([N+](=O)[O-])c1 : 0.96
28) CCOC(=O)CCn1nc2ccccc2n1 : 2.12
29) O=c1[nH]cnc2c1ncn2C1CC(O)C(CO)O1 (configuration not stated) : -1.71
30) CCCC(C)C(=O)O (configuration not stated) : 1.8
31) CC(C(=O)Nc1ccc([N+](=O)[O-])c(C(F)(F)F)c1)C(F)(F)F (configuration not stated) : 3.71
32) Brc1cc(Br)c(Br)c(-c2c(Br)c(Br)cc(Br)c2Br)c1Br : 5.5
33) Cc1sc(C(=O)Nc2nnn[nH]2)c(OC(C)C)c1Br : 1.72
34) CC(C)=NNc1ccc([N+](=O)[O-])cc1[N+](=O)[O-] : 3.05
35) Cc1cccc2[nH]ccc12 : 2.54
36) CCCCCN(CCCCC)N=O : 3.86
37) Cc1cc(Br)cc(C)c1C#[N+][O-] : 3.63
38) N#CCCCC#N : -0.72
39) Cc1cc(C)nc(NS(=O)(=O)c2ccc(N)cc2)n1 : 0.19
40) CC(=O)OCN1C(=O)c2cccc3cccc(c23)C1=O : 2.34
41) CCCCCCOCCO : 1.86
42) O=C1CC(c2ccccc2)Oc2ccccc21 (configuration not stated) : 3.14
43) CC(C)c1ccc(Br)c(C(C)C)c1NC(=O)CN(CC(=O)O)CC(=O)O : 0.2
44) O=[N+]([O-])c1c(Cl)cc(Cl)cc1Cl : 3.69
45) ClC1=CC2(Cl)C3C(Cl)C(Cl)C(Cl)C3C1(Cl)C2(Cl)Cl (configuration not stated) : 5.91
46) CCCCc1ccc(NC(=O)CN(CC(=O)O)CC(=O)O)cc1Br : 0.1
47) CSc1nc(N)nc(C(Cl)(Cl)Cl)n1 : 3.12
48) CCCCc1c(C)nc(NCC)nc1O : 2.22
49) Cc1cc(C)cc(NCc2cnc3nc(N)nc(N)c3c2C)c1 : 2.11
50) ClC1=C(Cl)C2(Cl)C(Cl)(Cl)C3CC(Cl)C1C3C2(Cl)Cl (configuration not stated) : 6.09
51) c1ncncn1 : 0.12
52) OC(CN1C2CCCC21)Cn1ccnc1 (configuration not stated) : 0.37
53) OCc1cc(Br)cc(Br)c1O : 2.72
54) NS(=O)(=O)c1cc2cc(CNCCF)sc2o1 : 0.34
55) Cc1cc(C)c(C#[N+][O-])c(C)c1 : 3.21
56) CC(C)(O)C(=O)Nc1ccc(Cl)cc1 : 2
57) CC(C)CC(=O)Oc1ccccc1 : 3.18
